- System: HT-29
- assayExplanation: Growth inhibition of human HT-29 cells incubated for 48 hrs by sulforhodamine B assay
- Format: functional
- conditionContext: HT-29, 48 h
propertyName: GI50 (nM)

| compound | uom | reportedValue |
| --- | --- | --- |
| CN(C)CC1C(=O)O[C@@H]2[C@H]3O[C@]3(C)CC/C=C(/COC(=O)c3cc4ccccc4[nH]3)CC[C@@H]12.O=C(O)/C=C/C(=O)O (some centres not stated) | nM | 430 |
| C=C1C(=O)O[C@@H]2[C@H]3O[C@]3(C)CC/C=C(/COC(=O)CCCc3c[nH]c4ccccc34)CC[C@@H]12 | nM | 1710 |
| C=C1C(=O)O[C@@H]2[C@H]3O[C@]3(C)CC/C=C(/COC(=O)c3c[nH]c4ccccc34)CC[C@@H]12 | nM | 240 |
| C=C1C(=O)O[C@@H]2[C@H]3O[C@]3(C)CC/C=C(/COC(=O)c3cc4cc(F)ccc4[nH]3)CC[C@@H]12 | nM | 1130 |
| C=C1C(=O)O[C@@H]2[C@H]3O[C@]3(C)CC/C=C(/COC(=O)/C=C/c3c[nH]c4ccccc34)CC[C@@H]12 | nM | 190 |
| C=C1C(=O)O[C@@H]2[C@H]3O[C@]3(C)CC/C=C(/COC(=O)c3cc4cc(OC)ccc4[nH]3)CC[C@@H]12 | nM | 350 |
| C=C1C(=O)O[C@@H]2[C@H]3O[C@]3(C)CC/C=C(/COC(=O)c3cc4ccccc4s3)CC[C@@H]12 | nM | 490 |

====

Listing of recorded GI50 by entry.
- Test system: LOX IMVI
- assayExplanation: Growth inhibition of human LOXIMVI cells incubated for 48 hrs by sulforhodamine B assay
- Assay type: functional

| compound | GI50 |
| --- | --- |
| C=C1C(=O)O[C@@H]2[C@H]3O[C@]3(C)CC/C=C(/COC(=O)c3cc4cc(OC)ccc4[nH]3)CC[C@@H]12 | 300 nM |
| C=C1C(=O)O[C@@H]2[C@H]3O[C@]3(C)CC/C=C(/COC(=O)c3cc4ccccc4[nH]3)CC[C@@H]12 | 180 nM |
| CN(C)CC1C(=O)O[C@@H]2[C@H]3O[C@]3(C)CC/C=C(/COC(=O)c3cc4ccccc4[nH]3)CC[C@@H]12.O=C(O)/C=C/C(=O)O (some centres not stated) | 170 nM |
| C=C1C(=O)O[C@@H]2[C@H]3O[C@]3(C)CC/C=C(/COC(=O)c3c[nH]c4ccccc34)CC[C@@H]12 | 40 nM |
| C=C1C(=O)O[C@@H]2[C@H]3O[C@]3(C)CC/C=C(/COC(=O)c3cc4ccccc4s3)CC[C@@H]12 | 200 nM |
| C=C1C(=O)O[C@@H]2[C@H]3O[C@]3(C)CC/C=C(/COC(=O)c3cc4cc(Cl)ccc4[nH]3)CC[C@@H]12 | 810 nM |
| C=C1C(=O)O[C@@H]2[C@H]3O[C@]3(C)CC/C=C(/COC(=O)c3cc4ccccc4o3)CC[C@@H]12 | 1420 nM |
| C=C1C(=O)O[C@@H]2[C@H]3O[C@]3(C)CC/C=C(/COC(=O)c3cn(C)c4ccccc34)CC[C@@H]12 | 220 nM |
| C=C1C(=O)O[C@@H]2[C@H]3O[C@]3(C)CC/C=C(/COC(=O)CCCc3c[nH]c4ccccc34)CC[C@@H]12 | 1550 nM |
| C=C1C(=O)O[C@@H]2[C@H]3O[C@]3(C)CC/C=C(/COC(=O)c3cc4cc(F)ccc4[nH]3)CC[C@@H]12 | 1050 nM |
| C=C1C(=O)O[C@@H]2C3O[C@]3(C)CC/C=C(\C)CC[C@@H]12 (some centres not stated) | 8240 nM |
| C=C1C(=O)O[C@@H]2[C@H]3O[C@]3(C)CC/C=C(/COC(=O)/C=C/c3c[nH]c4ccccc34)CC[C@@H]12 | 50 nM |
